We begin with a simple list: items and their reported cAMP EC50.
Target: hMC1-R (human) (UniProt Q01726)
Sequence (Q01726 whole entry): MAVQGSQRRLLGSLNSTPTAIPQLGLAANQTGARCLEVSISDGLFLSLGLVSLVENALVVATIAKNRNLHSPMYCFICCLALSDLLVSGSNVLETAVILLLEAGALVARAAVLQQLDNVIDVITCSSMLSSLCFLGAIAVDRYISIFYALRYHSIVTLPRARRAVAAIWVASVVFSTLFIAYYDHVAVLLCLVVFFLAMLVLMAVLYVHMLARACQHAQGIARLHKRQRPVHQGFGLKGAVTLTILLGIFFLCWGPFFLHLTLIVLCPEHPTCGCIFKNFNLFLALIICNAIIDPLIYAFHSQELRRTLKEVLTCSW
Experiment: cell-based or functional assay
Bridge positions count the residues as written; N and C are the ends. Square brackets hold non-standard residues; d marks the D form. Ends that are not written are not given here. Nle = CCCC[C@H](N)C(=O)O
Provide the reading as a plain figure in nM.

Prompt line: Let me know recorded cAMP EC50 for Ac-[Nle]C[dL]H[dF]RWC-NH2 (disulfide 2-8; SMILES CCCC[C@H](NC(C)=O)C(=O)N[C@H]1CSSC[C@@H](C(N)=O)NC(=O)[C@H](Cc2c[nH]c3ccccc23)NC(=O)[C@H](CCCNC(=N)N)NC(=O)[C@@H](Cc2ccccc2)NC(=O)[C@H](Cc2c[nH]cn2)NC(=O)[C@@H](CC(C)C)NC1=O) [Ac-Nle-c(Cys-D-Leu-His-D-Phe-Arg-Trp-Cys)-NH2] , thanks.
Response line: 3.24

Others:
Prompt line: Let me know recorded cAMP EC50 for GCEH[dF]RWC-NH2 (disulfide 2-8; also: residues 1-2 joined in a hydantoin ring (C(O))) [c[Hydantoin(C(O)-(Gly-Cys))-Glu-His-D-Phe-Arg-Trp-Cys]-NH2] , thanks.
Response line: 14.5
